Ref: the nanobody polyreactivity screen of Harvey et al. (2022)

- EXPERIMENTAL_DETAILS: yeast display, Sf9 membrane polyspecificity reagent, FACS + sequencing; frameworks hold sequencing errors
MEASURED_QUANTITY: polyreactivity (PSR sort gate)

Sample records with polyreactivity (PSR sort gate):
SEQUENCE	polyreactivity (PSR sort gate)
QVQLVESGGGLVQAGGSLRLSCAASGRIFSSYAMGWYRKAPGKERELVAAIRRGGGSTSYADSVKGRFTISRDNAKNTVYLQMNSLKPEDTAVYYCAADSPRGQVHYIGGYWGQGTQVTVSS	low polyreactivity
QVQLVESGGGLVQAGGSLRLSCAASGRSIKYYAMGWYRQAPGKERELVAAIRSTGGSTYYADSVKGRFTISRDNAKNTVYLQMNSLKPEDTAVYYCNARRYPRYVFSRYVYWGQGTQVNVSS	high polyreactivity
QVQLVESGGGLVQAGGRLRLSCAASGSTFVPYAMGWSRQAPGKERELVAGITWSGGRTYYADSVKGRFTISRDNAKNTVYFQLNSLKPEDTAVYYCNVEHLVYKYDGYYSRYYRLYYWGQGTHVTVSS	low polyreactivity
QVQLVESVGGLVQAGASLRLSCAASGRTFATYAKGWYRQAPGKERELVAAISRSGGSTYYADSVKGRFTISRDNAKNTVYLQMHSLKPEDTAGYYCAARYVRQYYRAEDYWGQGTQVTVSS	high polyreactivity

For the next question, use this sequence.
Lookup: Answer with reported polyreactivity (PSR sort gate) of QVQLVESGGGLVQAGGSLRLSCAASGRIFPRNAMGWYSPAPGKERELVAAITRAGSTYYADSVKGRFTISRDNAKNTVYLQLNSLKPEDTAVYYCNRQWHRDVYGHDYWGQGTQVTVSS
Found: high polyreactivity

----------
- EXPERIMENTAL_DETAILS: yeast display, Sf9 membrane polyspecificity reagent, FACS + sequencing; frameworks hold sequencing errors
MEASURED_QUANTITY: polyreactivity (PSR sort gate)

SEQUENCE	polyreactivity (PSR sort gate)
QVQLVESGGGLVQAGGSLRLSCAASGSILYPNAMGWYRQAPGKERELVAAISSSGGRTYYADSVKGRFTISRDNAKNTVYLQMNSLKPEDTAVYYCATVSIAGPRYDYWGQGTQVTVSS	high polyreactivity
QVQLVESGGGLVQAGGSLRLSCAASGSIIRQNAMGWYRQAPGKERELVAAISFSGTSTYYADSVKGRFTISRDNAKNTVYLQMNSLKPEDTAVYYCAVDNISYWAVENDYWGQGTQVTVSS	low polyreactivity
QVQLVESGGGLVQAGGSLRLSCASSGRTFQYYAMGWYRQAPGKERELVAAISSRGGSTYYADSVKGRFTISRDNAKNTVYLQMNSLKPEDTAVYYCAAYVLPRQRVRSDYWGQGTQVTVSS	high polyreactivity
QVELVVSGGGLVQAGGSLRLSCAASGRIFYRYAMGWYRQAPGKERELVAAISGRGGSTYYADSVKGRFTISRDNAKNTVYLQMNSLKPEDTAVYYCNALPVYRSLAYEVDYWGQGTQVTVSS	high polyreactivity

Next sequence, please.
Lookup: Return value of polyreactivity (PSR sort gate) for input QVQLEESGVGLVQAGGSLRLSWAASGFIIYINTMGWYRQAPGKERELVAAISQSGVGTSYADSVKGRFTISRDNAKNTVYLQMNRLKPEDTAVYYCATDCARSDVVDRFDYWGQGTQVTVSS , no commentary.
Found: low polyreactivity

----------
- EXPERIMENTAL_DETAILS: yeast display, Sf9 membrane polyspecificity reagent, FACS + sequencing; frameworks hold sequencing errors
MEASURED_QUANTITY: polyreactivity (PSR sort gate)

SEQUENCE	MEASURED_QUANTITY	OBSERVED_MEASUREMENT
QVQLVESGGGLVQAGGSLRLSCAASGRIFAYNARGWYRQAPGKERELVADISSGGNTYYADSVKGRFTISRDNAKNTVYLQMNSLKPEDTAVYYCAADIAWYTHYHRIFDYWGQGTQVTVSS	polyreactivity (PSR sort gate)	low polyreactivity
QVQLVESGGGLVQAGGSLRLSCAAYGSIYSKYAMGWYRQAPGKEREMDAAISWSDGTTYYADSVKGLFTISRDNAKYTVYLQLNSLKPEDTAVYYCNTPPQWLGRYITITFDYWGQGSQVTVSS	polyreactivity (PSR sort gate)	low polyreactivity

----------
- EXPERIMENTAL_DETAILS: yeast display, Sf9 membrane polyspecificity reagent, FACS + sequencing; frameworks hold sequencing errors
MEASURED_QUANTITY: polyreactivity (PSR sort gate)

Check out these entries, answers already filled in.
SEQUENCE	OBSERVED_MEASUREMENT
QVQLVESGGGLVQAGGSLRLSCAASGSTFQWNAMGWYRQAPGKERELVASITDSGGRTYYADSVKGRFTISRDNAKNTVYLQMNSLKPEDTAVYYCAAVSLWWSDYYFVEYDYWGQGTQVTVSS	high polyreactivity
QVQLVESGGGLVQAGGSLRLSCAASGSIFLQNAMGWYRQAPGKERELVAAITNGGSTNYADSVKGRFTISRDNAKNTVYLQMNSLKPEDTAVYYCAAERAILSSDKQSLWRFDYWGQGTQVTVSS	low polyreactivity
QVQLVESGGGLVQAGGSLRLSCAASGSILDQNTMGWYRQAPGKERELVAAITGSGGITYYADSVKGRFTISRDNAKNTVYLQMNSLKPEDTAVYYCATRTWRAYRKYNYWGQGTQVTVSS	high polyreactivity
QVQLVESGGGLVQEGGSLRLSCAASGFTYYHYAMGWYRHAPGKERELVAAITWSGGDTYYADSVKGRFTISRDNAKNTVYLQMNSLKPDDTAVYYCNADDPPGARYFDSFDYRGDYWGQGTQVTVSS	low polyreactivity
QVQLVESGGGVDQAGVSLRLSCAASGIICFGYAMGWYRQAPGNERELVARITRSGASTYYADSVKGRFTISRDNAKKTVYLQMYSLTPEDTPVSYCAADYRKRYDYWGQGTQVTVSS	low polyreactivity

Lookup: Recall and state the measured polyreactivity (PSR sort gate) for QVQLVESGGGLVQAGGSLRLSCAASGRTFGWYAMGWYRQAPGKEREFVAVISRSGTNTYYADSVKGRFTISRDNAKNTVYLQMNSLKPEDTAVYYCAAVRSSQSYYYWGQGTQVTVSS .
Found: high polyreactivity

Lookup: Query polyreactivity (PSR sort gate) for QVQLVESGGGLVQAGGSLRLSCAASMGWYRQAPGKERELVAITRTTRTYYADSVKGRFTISRDNAKNTVYLQMNSLKPVDTAVYYCAAPNGPSPYWYNYWGQGTQVTVSS
Found: low polyreactivity

Lookup: Fill in polyreactivity (PSR sort gate) for record QVHLVESGGGLVQAGGSLRLSCAASGRTFGPYTMGWYRQAPGTEREVVAAINSSGSRTYYADSVKGRFTISRDNAKNTVYLQMNSLKPEDTAVYYCADEAKWYYSWSYPYEGDYWGQGTQVTVSS
Found: low polyreactivity

Lookup: Answer with reported polyreactivity (PSR sort gate) of QVQLVESGGGLVQAGGSLRLSCAASGSTFVSNAMGWYRPAPGKERELVAAISTSGGSTYYADSVKGRFTISRDNAKNTVYLLMNSLKPEDTAVYYCAKLLARGFRIWQDYDYWGQGTQVTVSS
Found: low polyreactivity

Lookup: // fetch polyreactivity (PSR sort gate) given entry QVQLVESGGGLVQAGGSLRLSCAASGSIFWGYAMGWYRQAPGKERELVAAIRVSGGSTYYADSVKGRFTISRDNAKNTVYLQMNSLKPEDTAVYYCARDTWGGFSSADNYWGQGTQVTVSS
Found: high polyreactivity

Lookup: Let me know recorded polyreactivity (PSR sort gate) for QVQLVESGGGLVQAGGSLRLSCAASGITFYYYAMGWYRQAPGKERELVAAISFRGGSTYYADSVKGRFTISRDNAKNTVYLQMNSLKPEDTAVYYCAAETSPSWYTWVTYDYWGQGTKVTVSS , thanks.
Found: high polyreactivity

Lookup: Name the recorded polyreactivity (PSR sort gate) of the sequence listed here: QVQLVESGGGLVQAGGSLRLSCAASGIILRYYVMGWYRQAPGKERELVAAITSRGGSTYYADSVKGRFTISRDNAKITVYLQMNSLKPEDTAVYYCAAGYRNVNTFDYWGQGTQVTVSS
Found: high polyreactivity

----------
- EXPERIMENTAL_DETAILS: yeast display, Sf9 membrane polyspecificity reagent, FACS + sequencing; frameworks hold sequencing errors
MEASURED_QUANTITY: polyreactivity (PSR sort gate)

SEQUENCE	polyreactivity (PSR sort gate)
QVQLVESGGGLVQAGGSLRLSCAASGNIFGSYAMGWYRQAPGKERELVAAIRTSGGSTYYADSVKGRFTISRDNAKNTVYLQMNSLKPEDTAVYYCATRSRTTKIVRWPGMYYWGQGTQVTVSS	high polyreactivity
QVQLVESGGGLVQAGGSLRLSCAASGFIFLYYAMGWNTQSPGKERELVADISRGADTKYADSVKGRFTISRDNAKNTVYLQMNSLKPEDTAVYYCATDITTFWFPYPGVELGYWGQGSQVTVSS	low polyreactivity
QVQLVESGGGLVQAGGSLRLSCAASGFIFIYNAMGWYRQAPGKERELVAAITGSDGGTFYADSVKGRFTISRDNAKNTVYLQMNSLKPEDTAVYYCNADNGSRQSRDGYESWGQGTQVTVSS	low polyreactivity
QVQLVESGGGLVQAGGSLRLSCAASRFIFSWYAMGWYRQAPGTERELVATISSSGGRTHYADSVKGRFTISRDNAKNTVDLHMKSLKPEVTEVYYCAAHPFYYFTTVYYWGQGTQVTVSS	high polyreactivity
QVQLVESGVGLVQAGGSLRLSCADSGFTFFHYARGWYIQAPGKERELVAAIDYSAGSTYYADSVKGRFTISRDNAKNTVYLQMNSLKPEDTAVYYCAADARTSRGRRYYYWGQGTQVTVSS	low polyreactivity
QVQLVESGGGLVHAGGSLRLSCAASGSIFSAYAMGWYRQAPGKERELVAAISRSGGRTYYADSVKGRFTISRDNAKNTVYLQMNSLKPEDTAVYYCAAYFTYYSTLGRWYRYDYWGQGTQVTVSS	high polyreactivity
QVQLVESGGGLVQAGGSLRLSCAASGSTFTPNAMGSYRQAPGKERELDASISTTGGNTYYADSVKGRFTISRDNAKNTVYLQMNSLKPEDTAVYYCNAVRSVYLYGYIYGVDYWGQGTQVTVSS	low polyreactivity
QVQLVESGGGLVQAGGSLRISCGASGSTFAQNVMGWDRQAPGKERELVAAITSSGSTNYADSVKGRFTISRDNAKNTVYLQMNSLKPEDSAVYYCAKDVLAPYSRHDYWGQGTQVTVSS	low polyreactivity
QVQLVESGGGLVQAGGSLRLSCAATGRIFGQNAMGWYRQAPGKERELVAAINWSVGSTYYADSVKGRFTISRDNAKNTVYLQMNSLKPEDTGVYYCAAGNLYYAEYDYWGQGTQVTVSS	low polyreactivity
QVQLVESGGGLVQAGGSLRLSCAASGRTFDDNAMGWYRQAPGKERELVASISSGTSTNYADSVKGRFTISRDNAKNTVYVQMNCLKPEDTAVYYCNAYGPIWYTAVLGVGRYYGWTDYWGQGTQVTVSS	low polyreactivity

Now examine the next entry.
Lookup: Give the value of polyreactivity (PSR sort gate) reported for the following: QVQQQESGGGLVQAGGSLRLSCAASGYIFQAENMGWYRQAPGKERELVAAITIGASTYYADSVRGRFTISRDNAKNTVYLQMNSVKPEDTAVYYCAAKRFQYRTLYDYWGQGTQVTVSS
Found: high polyreactivity
